Test system: SR leukemia
Test: NCI-60 one-dose screen, 48 h
Conditions: 10 µM unless noted
This is part of a sample that, as a whole, favours compounds with a hit. Of some 83,000 tested, about 20% had one in any assay. The source made the active and inactive calls. Rule for the calls: active = growth percent below 10; inactive = the rest.
Hello, when you answer, please use one of the following outcomes: active, inactive

O=C1CC(c2ccccc2)Cc2nc3ccc(Cl)cc3cc21 (stereo not given); inactive
Cc1ccc(S(=O)(=O)N/N=C2\CC3CCC2(C)C3(C)C)cc1 (stereo not given); inactive
Cc1cc(C)c(S(=O)(=O)/N=c2/n(-c3ccccc3)nc3n2CCN3C2=NCCN2)c(C)c1; inactive
COc1cc(NCc2cn(-c3ccc(C(=O)O)cc3)nc2-c2ccc(C(=O)O)cc2)cc(OC)c1OC; inactive
CC(C)C1=NOC(=O)C1=Cc1cn(-c2cccnc2)nc1-c1ccccc1; active

Task item: In this assay, the call recorded for COc1cc2c(O)n(CCCN3CCOCC3)c3c4cnc5cccc(c(=O)c3c2cc1OC)c54 was what?
Reply: inactive

Task item: In this assay, the call recorded for O=C(NCc1ccccc1)C(Cl)Cl was what?
Reply: inactive

###

Below: a set of entries, each annotated with reported growth.
Tested on: COLO 205 colon
Assay: NCI-60 one-dose screen, 48 h (100 = growth as untreated, 0 = no growth, -100 = all killed)
Settings: 10 µM unless noted
About 83,000 compounds went through this panel and 20% of them were active in at least one assay; those are over-represented in the sample as a whole.
Write the answer as a number in %, unit excluded.

Past entries and their recorded results:
COc1ccc(-c2cc(-c3ccccc3)nc(SCCCCCC(=O)NO)n2)cc1; 38.1
NS(=O)(=O)c1ccc(CCN2C(=O)/C(=C\c3ccccc3)C=C2c2ccc(Cl)cc2)cc1; 115
COc1ccc2nc3c(cc2c1)C(=O)CC(C(F)(F)F)C3 (stereo not given); 9.86

Entry under test: N#C/C(=C(/O)CCCO)c1nc2ccccc2c(=O)[nH]1 . Its growth was 130

Entry under test: Cc1ccc(-n2nc3n(/c2=N\C(=O)NS(=O)(=O)c2ccc(C)cc2)CCN3C2=NCCN2)cc1 . Its growth was 115

###

Test system: K-562 leukemia
Test: NCI-60 one-dose screen, 48 h
Conditions: 10 µM unless noted
About 83,000 compounds went through this panel and 20% of them were active in at least one assay; those are over-represented in the sample as a whole. Activity calls are given as the source filed them. Rule for the calls: active = growth percent below 10; inactive = the rest.
Hello, when you answer, please use one of the following outcomes: active, inactive

Cc1nc(Cl)c2c(n1)N(C)c1ccc(Cl)cc1C(C)C2 (stereo unspecified); inactive

Task item: In this assay, the call recorded for CCCSc1nc(N)nc2nc[nH]c12 was what?
Reply: inactive

Task item: In this assay, the call recorded for C#C[C@]1(O)CC[C@H]2[C@@H]3CC=C4c5nc(Nc6ccccn6)sc5CC[C@]4(C)[C@H]3CC[C@@]21C was what?
Reply: active

Task item: In this assay, the call recorded for COc1cccc(-c2[nH]c(=S)ncc2C(=O)c2ccccc2)c1 was what?
Reply: inactive

Task item: In this assay, the call recorded for O=C(NCc1ccc(Cn2c(=O)sn(-c3ccccc3)c2=O)cc1)OCc1ccc2c(Br)cc(Br)c(O)c2n1 was what?
Reply: active

Task item: In this assay, the call recorded for CC1(C)CC(=O)c2c(ccc(C(=O)C[C@@H](N)CO)c2N)O1 was what?
Reply: inactive

###

System: NCI-H23 lung
Assay: NCI-60 one-dose screen, 48 h
Details: 10 µM unless noted
About 83,000 compounds went through this panel and 20% of them were active in at least one assay; those are over-represented in the sample as a whole. Calls of active or inactive are those of the source. Rule for the calls: active = growth percent below 10; inactive = the rest.
Hello, when you answer, please use one of the following outcomes: 1.0 = active, 0.0 = inactive

Use these answered entries as a reference point.
O=C1NC(=O)C(Cc2ccccc2)(Cc2ccccc2)N1; 0.0
Cc1ccc(-n2nc3n(/c2=N\C(=O)NS(=O)(=O)c2ccc(C)cc2)CCN3C2=NCCN2)cc1; 0.0
C[n+]1c2ccccc2nc2c(N)cc(N)cc21; 0.0

Task item: In this assay, the call recorded for O=[N+]([O-])c1cccc(N=NNc2cccc([N+](=O)[O-])c2)c1 was what?
Reply: 0.0

Task item: In this assay, the call recorded for CC(C)=CCC[C@](C)(O)[C@H]1CC[C@]2(C)[C@@H]1CC[C@@H]1[C@@]3(C)CC[C@H](OC(=O)CCC(=O)O)C(C)(C)[C@@H]3CC[C@]12C was what?
Reply: 0.0

Task item: In this assay, the call recorded for CCN1CCN(CC(=O)Nc2nc3ccc(NCc4ccc(Cl)cc4)cc3s2)CC1 was what?
Reply: 0.0

Task item: In this assay, the call recorded for CC1(C(=O)O)CCC(N)(C(=O)O)C1(C)C (stereo unspecified) was what?
Reply: 0.0

###

System: DU-145 prostate
Test: NCI-60 one-dose screen, 48 h
Settings: 10 µM unless noted
Compounds without any hit were thinned out: in the full panel of roughly 83,000, 20% have a hit. Active and inactive are the calls of the source. How the source made its calls: active means growth percent below 10; inactive means the rest.
Hello, when you answer, please use one of the following outcomes: active, inactive

NC(=O)c1cccc(-c2ccc(S(=O)(=O)Nc3ccc4c(c3)N(C(=O)C3CC3)CCC4)cc2)c1; inactive
O=C(OCc1ccc2c(Cl)cc(Cl)c(O)c2n1)N1CCNCC1; inactive
Ic1ccc2[nH]cc(SSc3c[nH]c4ccc(I)cc34)c2c1; inactive
CO[C@H]1CC[C@@]2(C)C(=CC[C@H]3[C@@H]4C[C@H](O)C[C@@]4(C)CC[C@@H]32)C1; inactive

Task item: In this assay, the call recorded for CC(=O)n1cc(C=O)c2ccccc21 was what?
Reply: inactive

Task item: In this assay, the call recorded for O=C1CC(c2ccc3c(c2)OCO3)Nc2ccccc21 (stereo not given) was what?
Reply: active

Task item: In this assay, the call recorded for C=C(C)[C@@H]1CC[C@]2(C(=O)OC)CC[C@]3(C)[C@H](CC[C@@H]4[C@@](C)(CCc5nn[nH]n5)[C@H](C(=C)C)CC[C@]43C)[C@@H]12 was what?
Reply: active

Task item: In this assay, the call recorded for Cc1nc(Cl)c2c(n1)N(C)c1ccc(Cl)cc1C(C)C2 (stereo not given) was what?
Reply: inactive

Task item: In this assay, the call recorded for CCCCCCCCN(CCCCCCCC)CC(O)c1ccc(Cl)c(C)c1Cl (stereo not given) was what?
Reply: inactive

Task item: In this assay, the call recorded for CCCCC(CC)COC(=O)C[N+](C)(C)CCOC(c1ccccc1)c1ccccc1 (stereo not given) was what?
Reply: inactive

###

Tested on: OVCAR-4 ovarian
Assay: NCI-60 one-dose screen, 48 h (100 = growth as untreated, 0 = no growth, -100 = all killed)
Conditions: 10 µM
Procedure: Growth inhibition of the OVCAR-4 human tumor cell line is measured as a screen for anti-cancer activity. Cells are grown in 96 well plates and exposed to the test compound for 48 hours. Compounds are tested at a single concentration, which is 10^-5 M for most compounds. The reported endpoint is percent growth (GI% or GIPRCNT), where numbers from 0 - 100% represent growth inhibition, and numbers from -100% - 0 represent cell death. For example, a value of 40 represents 60% growth inhibition. […]
The panel holds about 83,000 compounds, 20% with a hit somewhere; the sample as a whole holds those more often.
Below: a set of entries, each annotated with reported growth.
Write the answer as a number in %, unit excluded.

Past entries and their recorded results:
COc1ccc(/C=C(/C(=O)c2ccc(Cl)cc2)C(=O)C(F)(F)F)cc1; 96.3
Clc1ccc(N2CCN(CCCN3CCN(c4cccc(Cl)c4)CC3)CC2)cc1; 55.7

Record O=[N+]([O-])c1cc([N+](=O)[O-])c(NN=C(c2ccc(O)cc2)c2ccc(O)cc2)cc1Cl / OVCAR-4 ovarian, growth recorded as -47.7

Record Cc1ccc(-c2cc(-c3ccc(C)cc3)nc(N3CCN(CCNc4ccnc5cc(Cl)ccc45)CC3)n2)cc1 / OVCAR-4 ovarian, growth recorded as -59.4

Record O=C(NCc1ccc(Cn2c(=O)sn(-c3ccccc3)c2=O)cc1)OCc1ccc2c(Br)cc(Br)c(O)c2n1 / OVCAR-4 ovarian, growth recorded as -52.9

###

Test system: MDA-MB-435 melanoma
Test: NCI-60 one-dose screen, 48 h (100 = growth as untreated, 0 = no growth, -100 = all killed)
Conditions: 10 µM unless noted
This is part of a sample that, as a whole, favours compounds with a hit. Of some 83,000 tested, about 20% had one in any assay.
Below: a set of entries, each annotated with reported growth.
Write the answer as a number in %, unit excluded.

Nc1cc(C(=O)O)[nH]c(=S)n1; 98
Cc1ccc(-c2cc(-c3ccc(C)cc3)nc(NCCNc3ccnc4cc(Cl)ccc34)n2)cc1; -76.4
C=CC1=C(C)C2=NC1=CC1=NC(=CC3=C(C)C4=C(O)C(C(=O)O)C(=C5NC(=C2)C(C)C5CCC(=O)O)C4=N3)C(CC)=C1C (stereo not given); 120
c1nc(N2CCOCC2)c2[nH]ccc2n1; 112

Then there is this compound:
Entry under test: COc1ccc2c(c1)c(-c1noc(C(=O)c3cn(C)c4ncc(Br)cc34)n1)cn2C . Its growth was 63.1
